The measured values listed here are drawn from PubChem BioAssay (NCATS).

Experiment: NFAT Signaling Pathway (AID 444);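 note: carbachol stimulus at about its EC50 of 1 µM final; % is set by controls: 0 for no effect and ±100 for the full control effect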
Settings: Jurkat NFAT-bla M1, carbachol, beta-lactamase ratio, 5 h; at 38 µM (top of the series) unless noted
Records with an inconclusive call do not appear. Calls of active or inactive are those of the source. Calls come from the whole dose curve; as a rule, active = well fitted curve in either direction with a large enough effect (not every such curve was filed as active); inconclusive = small, poorly fitted or top-dose-only effect, or another doubt; inactive = flat fitted curve, though single readings scatter.
quantity.measured: activity change, negative = inhibition

Example molecules with recorded activity change, negative = inhibition:
Consider the molecule "COc1cc2c(CCNC(C)=O)c[nH]c2cc1Cl" and give its measured activity change, negative = inhibition.
-9.13% (inactive)

Report activity change, negative = inhibition for "COc1cc(OC)c(/C=C2/C(=O)Nc3ccccc32)c(OC)c1" please.
-8.19% (inactive)

Field request: activity change, negative = inhibition | item: "Cc1ccc(O)c(N=Nc2ccccc2)n1"
-10.8% (inactive)

Requested field: activity change, negative = inhibition. Item: "N#C/C(=C\c1ccc(O)c(O)c1)C(=O)NCc1ccccc1"
-14.7% (inactive)

Requested field: activity change, negative = inhibition. Item: "CN(C)c1nc(N)c(C(=O)N=C(N)N)nc1Cl"
-15.7% (inactive)

For the molecule "CN1CCc2ccccc2Cc2[nH]c3ccccc3c2CC1" , what activity change, negative = inhibition is on record?
-7.31% (inactive)

Quick check: activity change, negative = inhibition of "Ic1ccc(N2CCN(Cc3c[nH]c4ncccc34)CC2)cc1" ?
0.65% (inactive)

Fill in the blank: the reported activity change, negative = inhibition of "CCCCN1CCC(n2c(=O)[nH]c3ccccc32)CC1" is ____.
4.7% (inactive)

Given the entry "Nc1nc(Cl)nc2c1ncn2[C@@H]1O[C@H](CO)[C@@H](O)[C@H]1O" , report its measured activity change, negative = inhibition.
22.4% [at 17.2 µM] (inactive)

Suppose we examine the molecule "Clc1ccc(N2CCN(Cc3c[nH]c4ncccc34)CC2)cc1" ; what activity change, negative = inhibition value has been reported?
-18.8% (inactive)

---
Fill in the blank: the reported activity change, negative = inhibition of "Cc1c(N)c(=O)n(-c2ccccc2)n1C" is ____.
-9.93% [at 17.2 µM] (inactive)

I'd like to know its activity change, negative = inhibition. The molecule in question is "O=C(O)c1cc(=O)c2c(Cl)cc(Cl)cc2[nH]1"
0.544% (inactive)

Given "CC1(C)CCC=[N+]1[O-]" , state its recorded activity change, negative = inhibition.
-6.56% (inactive)

# lookup: activity change, negative = inhibition of "O=C1NC(O)=NC1(c1ccccc1)c1ccccc1"
-13.5% (inactive)

---

Assay: Nrf2 qHTS screen for inhibitors: Validation (AID 493153)
Conditions: A549 ARE-Fluc reporter, 18-24 h; measured here: cytotoxicity max response
Records with an inconclusive call do not appear.
quantity.measured: viability change (%)
Value expressed in %; do not type the unit.

Endpoint output: viability change of Cc1ccc(C(=O)O[C@H](C(=O)O)[C@@H](OC(=O)c2ccc(C)cc2)C(=O)O)cc1 (tested in a mixture with another compound) . Value?
-3.95

Data request, read-out viability change, for "Nc1nc(SCc2ccc([N+](=O)[O-])cc2)c2ncn([C@@H]3O[C@H](CO)[C@@H](O)[C@H]3O)c2n1"
12.2

Item "CC(C)NC[C@H](O)COc1cccc2[nH]ccc12" has what recorded viability change?
-1.79

Name the reported viability change value associated with the molecule CCCCCCCCCCCCCCCC(=O)OC(CC(=O)O)C[N+](C)(C)C (configuration not stated)
-1.76

Record request: viability change value, item OCC1O[C@H]([S-])[C@H](O)[C@@H](O)[C@@H]1O.[Au+] (some centres not stated)
-19.1

Which viability change is listed for "NCCNC(=O)c1ncsc1-c1cccc(F)c1" ?
1.7

Tell me the measured viability change of "NCCSSCCN" , please.
-6.08
